Data credit: ChEMBL document CHEMBL4219146

target: Muscarinic acetylcholine receptor M1 (Homo sapiens) (UniProt P11229); assay: Positive allosteric modulation of human muscarinic acetylcholine receptor M1 expressed in flpIn-CHO cells assessed as potentiation of acetylcholine-mediated IP1 accumulation at 10 uM measured after 1 hr by based HTRF assay relative to control; assay type: functional, cell-based
Sequence (P11229 whole entry): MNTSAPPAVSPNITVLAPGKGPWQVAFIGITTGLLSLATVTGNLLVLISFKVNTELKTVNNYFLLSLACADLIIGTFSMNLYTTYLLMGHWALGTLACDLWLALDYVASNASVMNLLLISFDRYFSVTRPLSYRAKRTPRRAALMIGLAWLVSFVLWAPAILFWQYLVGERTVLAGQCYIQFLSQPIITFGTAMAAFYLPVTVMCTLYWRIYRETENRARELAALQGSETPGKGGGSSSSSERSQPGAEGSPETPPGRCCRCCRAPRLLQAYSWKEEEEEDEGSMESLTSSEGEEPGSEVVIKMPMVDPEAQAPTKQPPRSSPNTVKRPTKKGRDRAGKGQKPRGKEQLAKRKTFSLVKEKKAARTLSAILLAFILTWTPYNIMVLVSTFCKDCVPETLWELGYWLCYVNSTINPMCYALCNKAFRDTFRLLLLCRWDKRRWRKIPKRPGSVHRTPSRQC
Calls of active or inactive are those of the source. The calls are words filed in the database; no cut-off is given here.
measured.quantity: Activity

| structure.smiles.string | measured.quantity | observed.measurement |
| --- | --- | --- |
| Cn1cc(-c2ccc(Cn3cc(C(=O)N[C@H]4CCCC[C@@H]4O)c4c(Cl)cccc43)cc2)cn1 | Activity | Active |
| Cn1cc(-c2ccc(Cn3cc(C(=O)N4CCN(C(=O)OC(C)(C)C)CC4)c4ncccc43)cc2)cn1 | Activity | inactive |
| Cn1cc(-c2ccc(Cn3cc(C(=O)N[C@H]4CCCC[C@@H]4O)c4ccccc43)cc2)cn1 | Activity | Active |
| Cn1cc(-c2ccc(Cn3cc(C(=O)N[C@H]4CCCC[C@@H]4O)c4ncccc43)cc2)cn1 | Activity | Active |
| CNC(=O)c1cn(Cc2ccc(-c3cnn(C)c3)cc2)c2cccnc12 | Activity | Active |
| Cn1cc(-c2ccc(Cn3cc(C(=O)N[C@H]4CCCC[C@@H]4O)c4c(F)cccc43)cc2)cn1 | Activity | Active |
| Cn1cc(-c2ccc(Cn3cc(C(=O)N4CCCCC4)c4ncccc43)cc2)cn1 | Activity | inactive |
| Cn1cc(-c2ccc(Cn3cc(C(=O)N[C@H]4CCCC[C@@H]4N)c4ncccc43)cc2)cn1 | Activity | Active |
| Cn1cc(-c2ccc(Cn3cc(C(N)=O)c4ncccc43)cc2)cn1 | Activity | Active |
